Target: recombinant human TFPI (tissue factor pathway inhibitor) (human, UniProt P10646 29-304)
Experiment: cell-based or functional assay
For each of the binders below, state its FXa assay OD, 20 nM Ab, 10 nM TFPI.
Hey, just send me the number, nothing else.

Inquiry: What FXa assay OD, 20 nM Ab, 10 nM TFPI value was documented for this binder, clone 1023 (antibody, V domains shown, scFv on yeast at selection; human IgG4/kappa IgG as purified) VH: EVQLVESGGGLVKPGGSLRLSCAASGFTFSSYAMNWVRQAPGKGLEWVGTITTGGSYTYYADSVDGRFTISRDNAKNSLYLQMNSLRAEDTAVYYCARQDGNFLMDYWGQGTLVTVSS VL: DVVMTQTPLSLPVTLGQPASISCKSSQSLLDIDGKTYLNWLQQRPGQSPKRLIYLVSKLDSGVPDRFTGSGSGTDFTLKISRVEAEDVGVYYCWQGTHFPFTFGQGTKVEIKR ?
Reply text: 0.707

Inquiry: Query: FXa assay OD, 20 nM Ab, 10 nM TFPI; subject: clone 1202 (antibody, V domains shown, scFv on yeast at selection; human IgG4/kappa IgG as purified; also called No. 1202 antibody) VH: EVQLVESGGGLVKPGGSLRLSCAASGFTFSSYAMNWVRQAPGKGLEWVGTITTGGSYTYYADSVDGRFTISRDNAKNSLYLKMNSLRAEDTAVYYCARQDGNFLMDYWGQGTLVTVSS VL: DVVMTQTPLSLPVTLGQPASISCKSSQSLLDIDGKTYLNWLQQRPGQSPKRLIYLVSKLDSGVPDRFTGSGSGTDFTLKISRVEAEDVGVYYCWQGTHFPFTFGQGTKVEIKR
Reply text: 0.72

Inquiry: Quick one: FXa assay OD, 20 nM Ab, 10 nM TFPI of clone 13 (antibody, V domains shown) VH: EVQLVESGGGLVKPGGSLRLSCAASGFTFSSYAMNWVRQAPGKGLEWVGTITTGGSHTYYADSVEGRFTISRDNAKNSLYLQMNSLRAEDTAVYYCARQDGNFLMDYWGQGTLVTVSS VL: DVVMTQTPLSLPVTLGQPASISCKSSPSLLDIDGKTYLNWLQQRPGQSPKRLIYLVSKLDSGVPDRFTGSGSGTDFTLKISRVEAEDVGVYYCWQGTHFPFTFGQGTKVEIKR ?
Reply text: 0.706

Data provenance is patent US20180030151A1.
